target: MTHFD2 recombinant human enzyme (Homo sapiens, UniProt P13995); experiment: MTHFD2 inhibition assay (NAD(P)H-Glo luminescence); conditions: selectivity of MTHFD2 inhibition over MTHFD1, band
Sequence (P13995 36-350): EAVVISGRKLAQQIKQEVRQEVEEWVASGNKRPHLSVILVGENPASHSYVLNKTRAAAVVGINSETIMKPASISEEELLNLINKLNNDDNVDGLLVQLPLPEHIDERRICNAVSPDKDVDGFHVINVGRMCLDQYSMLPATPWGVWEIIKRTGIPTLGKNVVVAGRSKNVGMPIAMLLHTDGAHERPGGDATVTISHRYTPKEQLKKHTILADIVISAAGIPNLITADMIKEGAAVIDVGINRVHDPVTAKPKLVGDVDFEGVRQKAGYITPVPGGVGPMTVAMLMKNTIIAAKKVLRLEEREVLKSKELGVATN

| molecule | MTHFD1/MTHFD2 IC50 ratio |
| --- | --- |
| COC[C@H]1CN(c2cc(C)c3c4c(c(=O)oc3c2C)CN(C(=O)c2ccc(C(=O)NS(=O)(=O)N3CCCC3)c(OC(F)(F)F)c2F)CC4)CCN1C [Example 169] | H (>9.0 to 30) |
| COC[C@H]1CN(c2ccc3c4c(c(=O)oc3c2C)CN(C(=O)c2ccc(C(=O)NS(=O)(=O)N3[C@H](C)CC[C@H]3C)c(OC3CCC3)c2F)CC4)CCN1C [Example 177] | F (<3) |
| Cc1c(N2CCN3CCOC[C@H]3C2)ccc2c3c(c(=O)oc12)CN(C(=O)c1ccc(C(=O)NS(=O)(=O)N2CCCC2)c(OC2CCC2)c1)CC3 [Example 19] | F (<3) |
| COC[C@H]1CN(c2ccc3c4c(c(=O)oc3c2C)CN(C(=O)c2cc(F)c(C(=O)NS(=O)(=O)C3(C)CC3)c(N3CC5CC5C3)c2)CC4)CCN1C (stereo partly shown) [Example 26] | F (<3) |
| COC[C@H]1CN(c2cc(C)c3c4c(c(=O)oc3c2C)CN(C(=O)c2cc(OC3CC3)c(C(=O)NS(=O)(=O)N3CC5CC5C3)cc2F)CC4)CCN1C (stereo partly shown) [Example 264] | J (>30) |
| [2H]C([2H])([2H])Oc1cc(C(=O)N2CCc3c(c(=O)oc4c(C)c(N5CCN(C)[C@@H](COC)C5)cc(Cl)c34)C2)c(F)cc1C(=O)NS(=O)(=O)N1CC2CC2C1 (stereo partly shown) [Example 327] | J (>30) |
| COC[C@H]1CN(c2cc(C)c3c4c(c(=O)oc3c2C)CN(C(=O)c2ccc(C(=O)NS(=O)(=O)N3CCCC3)c(OC3CCCC3)c2F)CC4)CCN1C [Example 4] | F (<3) |
| COC[C@H]1CN(c2cc(C)c3c4c(c(=O)oc3c2C)CN(C(=O)c2ccc(C(=O)NS(=O)(=O)N(C)C)c(O[C@@H]3C[C@@H]5C[C@@H]5C3)c2F)CC4)CCN1C [Example 11] | F (<3) |
| COC[C@H]1CN(c2ccc3c4c(c(=O)oc3c2C)CN(C(=O)c2cc(Cl)c(C(=O)NS(=O)(=O)N3CCCC3)c(N3CC5CC5C3)c2)CC4)CCN1C (stereo partly shown) [Example 105] | G (^ 3 to 9.0) |
| COC[C@H]1CN(c2cc(C)c3c4c(c(=O)oc3c2C)CN(C(=O)c2cc(N(C)C)c(C(=O)NS(=O)(=O)N3CCC[C@H]3COC)cc2F)CC4)CCN1C [Example 312] | J (>30) |
| COC[C@H]1CN(c2cc(C)c3c4c(c(=O)oc3c2C)CN(C(=O)c2ccc(C(=O)NS(=O)(=O)C3(C)CC3)c(N3CCCC3)c2F)CC4)CCN1C [Example 69] | G (^ 3 to 9.0) |
| COC[C@H]1CN(c2cc(C)c3c4c(c(=O)oc3c2C)CN(C(=O)c2ccc(C(=O)NS(=O)(=O)N3CCCC3)c(OC3CC3)c2F)CC4)CCN1C [Example 212] | F (<3) |
| [2H]C([2H])([2H])Oc1cc(C(=O)N2CCc3c(c(=O)oc4c(C)c(N5CCN(C)[C@@H](COC)C5)cc(Cl)c34)C2)c(F)cc1C(=O)NS(=O)(=O)N1CCCC1 [Example 246] | J (>30) |
| COC[C@H]1CN(c2cc(C)c3c4c(c(=O)oc3c2C)CN(C(=O)c2ccc(C(=O)NS(=O)(=O)N(C)C)c(OC(C)C)c2F)CC4)CCN1C [Example 148] | G (^ 3 to 9.0) |
| COC[C@H]1CN(c2cc(C)c3c4c(c(=O)oc3c2C)CN(C(=O)c2ccc(C(=O)NS(=O)(=O)N3CCCC3)c(OC)c2F)CC4)CCN1C [Example 135] | G (^ 3 to 9.0) |
| COC[C@H]1CN(c2ccc3c4c(c(=O)oc3c2C)CN(C(=O)c2ccc(C(=O)NS(=O)(=O)N3CCCC3)c(OC3CCC3)c2F)CC4)CCN1C [Example 54] | F (<3) |
| COC[C@H]1CN(c2cc(C)c3c4c(c(=O)oc3c2C)CN(C(=O)c2cc(N(C)C)c(C(=O)NS(=O)(=O)N(C)C3CC3)cc2F)CC4)CCN1C [Example 257] | J (>30) |
| CCOc1c(C(=O)NS(=O)(=O)N2C[C@H]3CCC[C@H]3C2)ccc(C(=O)N2CCc3c(c(=O)oc4c(C)c(N5CCN(C)[C@@H](COC)C5)cc(C)c34)C2)c1F [Example 232] | F (<3) |
| COC[C@H]1CN(c2cc(Cl)c3c4c(c(=O)oc3c2C)CN(C(=O)c2ccc(C(=O)NS(=O)(=O)N3CC5CC5C3)c(OC)c2)CC4)CCN1C (stereo partly shown) [Example 280] | H (>9.0 to 30) |
| CCOc1c(C(=O)NS(=O)(=O)N2C3CCCC2CC3)ccc(C(=O)N2CCc3c(c(=O)oc4c(C)c(N5CCN(C)[C@@H](COC)C5)cc(C)c34)C2)c1F [Example 234] | F (<3) |
| CCOc1c(C(=O)NS(=O)(=O)N2CC3CC3C2)ccc(C(=O)N2CCc3c(c(=O)oc4c(Cl)c(N5CCN(C)[C@@H](COC)C5)ccc34)C2)c1F (stereo partly shown) [Example 208] | F (<3) |
| COC[C@H]1CN(c2cc(C)c3c4c(c(=O)oc3c2C)CN(C(=O)c2cc(C(=O)NS(=O)(=O)N3CCCC3)cc(OC3CCC3)c2F)CC4)CCN1C [Example 166] | G (^ 3 to 9.0) |
